Sourced from paper PMC8745330

- target_or_system: hCA IX (Homo sapiens, UniProt Q16790)
- Construct: made in house
- test_name: stopped flow CO2 hydrase assay, CA IX
- Assay type: biochemical
- experimental_parameters: ratio between KI values
observed_property: Selectivity index (SI) CA II/CA IX

Examples with answers:
{"columns": ["chemical_structure", "Selectivity index (SI) CA II/CA IX"],
 "data": [
  ["CC(=O)Nc1cc(S(N)(=O)=O)ccc1OCc1cn(CCCS(=O)(=O)[O-])nn1.[Na+]", 0.26],
  ["NS(=O)(=O)c1ccc(C(=O)NCc2cn(CCCS(=O)(=O)[O-])nn2)cc1.[Na+]", 1.3],
  ["NS(=O)(=O)c1ccc(NC(=O)Nc2ccc(OCc3cn(CCCS(=O)(=O)[O-])nn3)cc2)cc1.[Na+]", 0.10],
  ["NS(=O)(=O)c1ccc(NC(=O)NCc2cn(CCCS(=O)(=O)[O-])nn2)cc1.[Na+]", 0.11]
]}

a = CCC(=O)Nc1cc(S(N)(=O)=O)ccc1OCc1cn(CCCS(=O)(=O)[O-])nn1.[Na+]
b = NS(=O)(=O)c1ccc(NC(=S)NCc2cn(CCCS(=O)(=O)[O-])nn2)cc1.[Na+]
c = CC(=O)Nc1cc(S(N)(=O)=O)ccc1OCc1cn(CCCCS(=O)(=O)O)nn1
d = NS(=O)(=O)c1ccc(OCc2cn(CCCS(=O)(=O)[O-])nn2)cc1.[Na+]
### Prompt Rank order required: Selectivity index (SI) CA II/CA IX, descending. Put the labels in the requested order and list them out.
### Response c, b, a, d
(c: 3.2, b: 0.42, a: 0.12, d: 0.02)

###

- target_or_system: hCA I (Homo sapiens)
- Sequence (P00915 whole entry): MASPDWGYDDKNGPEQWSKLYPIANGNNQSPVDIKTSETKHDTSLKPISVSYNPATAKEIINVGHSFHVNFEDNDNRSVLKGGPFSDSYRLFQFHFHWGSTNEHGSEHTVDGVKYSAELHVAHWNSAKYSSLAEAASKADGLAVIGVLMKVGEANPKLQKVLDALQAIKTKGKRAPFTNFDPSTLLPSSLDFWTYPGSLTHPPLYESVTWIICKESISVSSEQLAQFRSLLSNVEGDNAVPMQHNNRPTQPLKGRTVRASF
observed_property: Ki (nM)

a = NS(=O)(=O)c1ccc(CNC(=O)NCc2cn(CCCS(=O)(=O)[O-])nn2)cc1.[Na+]
b = NS(=O)(=O)c1ccc(NCc2cn(CCCS(=O)(=O)[O-])nn2)cc1.[Na+]
### Prompt Looking only at measured Ki, which entry is lower, a or b ? Indicate which entry you chose by stating its label.
### Response b
(b: 460 nM, a: 807 nM)

###

- target_or_system: hCA XII (Homo sapiens, UniProt O43570)
- Construct: made in house
- Sequence (O43570 25-354): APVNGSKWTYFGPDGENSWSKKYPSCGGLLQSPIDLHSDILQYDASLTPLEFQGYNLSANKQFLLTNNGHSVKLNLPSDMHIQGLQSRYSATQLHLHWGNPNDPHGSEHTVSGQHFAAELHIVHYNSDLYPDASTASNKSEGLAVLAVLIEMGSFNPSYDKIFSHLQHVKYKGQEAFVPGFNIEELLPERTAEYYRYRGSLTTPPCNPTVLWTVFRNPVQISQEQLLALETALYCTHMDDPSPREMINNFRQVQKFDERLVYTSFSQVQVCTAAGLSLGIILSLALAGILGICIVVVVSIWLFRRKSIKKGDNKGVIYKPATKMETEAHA
- test_name: stopped flow CO2 hydrase assay, CA XII
- Assay type: biochemical
- experimental_parameters: ratio between KI values
observed_property: Selectivity index (SI) CA II/CA XII

// known answers, use as guide
{"columns": ["compound", "Selectivity index (SI) CA II/CA XII"],
 "data": [
  ["NS(=O)(=O)c1ccc(CNC(=O)NCc2cn(CCCS(=O)(=O)[O-])nn2)cc1.[Na+] [Compound 35]", 8.4],
  ["NS(=O)(=O)c1ccc(CCNC(=O)NCc2cn(CCCS(=O)(=O)[O-])nn2)cc1.[Na+] [Compound 36]", 4.9],
  ["NS(=O)(=O)c1ccc(-c2cn(CCCS(=O)(=O)[O-])nn2)cc1.[Na+] [Compound 30]", 0.48]
]}

1 = NS(=O)(=O)c1ccc(NC(=O)Nc2ccc(OCc3cn(CCCS(=O)(=O)[O-])nn3)cc2)cc1.[Na+] [Compound 38]
2 = NS(=O)(=O)c1ccc(C(=O)NCc2cn(CCCS(=O)(=O)[O-])nn2)cc1.[Na+] [Compound 33]
3 = CC(=O)Nc1cc(S(N)(=O)=O)ccc1OCc1cn(CCCCS(=O)(=O)O)nn1 [Compound 50]
4 = CC(=O)Nc1cc(S(N)(=O)=O)ccc1OCc1cn(CCCS(=O)(=O)[O-])nn1.[Na+] [Compound 39]
5 = NS(=O)(=O)c1ccc(NC(=S)NCc2cn(CCCS(=O)(=O)[O-])nn2)cc1.[Na+] [Compound 37]
### Prompt Hi! Can you put these in order of Selectivity index (SI) CA II/CA XII, lowest number first? The response must list the labels following the requested ordering.
### Response 1, 2, 5, 4, 3
(1: 0.11, 2: 0.45, 5: 2.2, 4: 3.4, 3: 6.5)
